B1: HDV Ribozyme (parent)
chain: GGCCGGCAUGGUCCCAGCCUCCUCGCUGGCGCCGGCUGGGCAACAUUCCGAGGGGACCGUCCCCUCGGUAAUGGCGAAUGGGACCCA

- Variants of: B1
- method_notes: self-cleavage, relative activity (ratio to wild type); higher = more cleavage; co-transcriptional

{"columns": ["variant_identifier", "self-cleavage"],
 "data": [
  ["G73A A87U", 0.803],
  ["C63G A87C", 0.737],
  ["G1C A83U", 0.252],
  ["C33A G59C", 0.521],
  ["G11U C62G", 0.151],
  ["C41U G76A", 0.95],
  ["C30G G55C", 0.111],
  ["C21U C30G", 0.107],
  ["G50A G59U", 1.18],
  ["C62G A71U", 0.489],
  ["C7A U65C", 0.522],
  ["G10A C63G", 0.566],
  ["C64U G76C", 0.905],
  ["C19U C75U", 0.0329],
  ["A56G A70U", 1.1],
  ["C66G G74U", 0.396],
  ["A45C A71U", 1.09],
  ["G50U G59A", 0.852],
  ["G53C G82U", 0.358],
  ["A77U C85A", 0.514],
  ["G5A C33U", 0.831],
  ["A8C G35C", 0],
  ["G52U C64A", 0.911],
  ["G29U C44A", 0.0297],
  ["A8U G39A", 0.318],
  ["C13A C26U", 0.764],
  ["C75G A78U", 0.0462],
  ["A45C U60C", 0.573],
  ["C30U U72A", 0.277],
  ["G54C G74U", 0.475],
  ["C33U C84G", 0.628],
  ["U47A G73U", 0.142],
  ["U27A G31C", 0.378],
  ["C19U C62U", 0.244],
  ["G28A C33A", 0.107],
  ["C3A U20A", 0.0683],
  ["U79C A87G", 0.47],
  ["C61U G81C", 0.29],
  ["C22U A71U", 0.587],
  ["G5A C13G", 0],
  ["C24G C66G", 0.13],
  ["G6A G25C", 0.0462],
  ["C57G G74U", 0.388],
  ["U20G A70C", 0.217],
  ["C22G G73C", 0.0845],
  ["G34A C66G", 0.138],
  ["C24A G52A", 1.1],
  ["U23C U37G", 0.266],
  ["U9C C15A", 0.748],
  ["C63U C64A", 0.831],
  ["G68C G74C", 0.181],
  ["G10U C62A", 0.787],
  ["U12G A78C", 0.0594],
  ["C4A G40A", 0.214],
  ["C4G C13A", 0.0277],
  ["G34C G59U", 0.0415],
  ["C4G G10A", 0.105],
  ["U27G G54A", 0.578],
  ["G38A C48A", 0.121],
  ["C7U G31C", 0.727],
  ["C15U C32U", 0.73],
  ["C32G C66A", 0.113],
  ["G40U G82U", 0.171],
  ["G50C A70U", 0.8],
  ["G38C G39U", 0.0396],
  ["G38U U47A", 0.109],
  ["G5A U9G", 0.111],
  ["C3G C61G", 0.561],
  ["G10A G68C", 0.453],
  ["C26U C86A", 0.99],
  ["A16C G74C", 0.185],
  ["G17U C18A", 0.0978],
  ["C4U C14U", 1.04],
  ["C18G C66A", 0.0437],
  ["G40A C62U", 0.853],
  ["C4U C49G", 0.604],
  ["G31C G59C", 0.378],
  ["G2C C61A", 0.0391],
  ["G5U A70C", 0.415],
  ["A56C G68A", 1.11],
  ["G55U C57U", 1.11],
  ["C26G C86U", 0.831],
  ["G38A U60G", 0.0386],
  ["U37G G55U", 0.214],
  ["U9C A43U", 0.378],
  ["C63A A83G", 0.712],
  ["C22U U23A", 0.845],
  ["A8G U23G", 0.776],
  ["U9C G59C", 1.09],
  ["A43C A45G", 0.643],
  ["U20G U23G", 0.185]
]}

Attribution: the RNAGym collection of RNA variant scans (doi:10.7554/elife.80360)
